# testSystem: GOPC, Q9HD26
# test: holdup assay
# Set-up: key: below the threshold = too weak to quantify, mostly under pKd 3.1 to 4
# conditionDescription: plain residues with an end cap or a label only (N-terminal biotin on a linker: ado-ado)
measurementName: pKd

Some binders with recorded pKd:
# binder, measured
measured = [
    ("GVHSNDHSVV [LPAR1, Q92633]", 3.59),
    ("LPPPESESKV [KCNJ9, Q92806]", "below the threshold"),
    ("PLATCDETSI [SEMA4F, O95754]", "below the threshold"),
    ("QKASRNESTF [POLR1D, P0DPB6]", "below the threshold"),
    ("NSTHNLKDYV [CLDN20, P56880]", "below the threshold"),
    ("EAVTVESTSL [SLC22A11, Q9NSA0]", 4.18),
    ("VISSDDLTEL [CAPN6, Q9Y6Q1]", "below the threshold"),
]

We now examine a further binder.
Exercise: # lookup: pKd of WAKEKQHTRL [SLC17A1, Q14916]
Key: 4.91
